Where do the numbers come from? From paper PMC9975087.

We begin with a simple list: items and their reported pKd.
- targetUnderTest: Acb2 (Pseudomonas phage PaMx33, UniProt A0A1C8HPQ3)
- Sequence (A0A1C8HPQ3 whole entry): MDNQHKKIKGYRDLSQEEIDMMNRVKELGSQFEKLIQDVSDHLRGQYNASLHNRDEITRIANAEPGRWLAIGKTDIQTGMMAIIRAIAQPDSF
- measurementDescription: Isothermal titration calorimetry
- Format: binding
pKd: −log10 of the molar value.
testReadout: pKd

molecule="Nc1nc2c(ncn2[C@@H]2O[C@@H]3COP(=O)(O)O[C@H]4[C@@H](O)[C@H](n5ccc(=O)[nH]c5=O)O[C@@H]4COP(=O)(O)O[C@H]3[C@H]2O)c(=O)[nH]1 [3’,3’-c-UMP-GMP]" testreadout=pKd result=~6.28
molecule="Nc1nc2c(ncn2[C@@H]2O[C@@H]3COP(=O)(O)O[C@H]4[C@@H](O)[C@H](n5cnc6c(N)ncnc65)O[C@@H]4COP(=O)(O)O[C@H]3[C@H]2O)c(=O)[nH]1 [3’,3’-cGAMP]" testreadout=pKd result=~7.06
molecule="Nc1ncnc2c1ncn2[C@@H]1O[C@@H]2COP(=O)(O)O[C@H]3[C@@H](O)[C@H](n4cnc5c(N)ncnc54)O[C@@H]3COP(=O)(O)O[C@H]2[C@H]1O [c-di-AMP]" testreadout=pKd result=~7.18
molecule="Nc1ncnc2c1ncn2[C@@H]1O[C@@H]2COP(=O)(O)O[C@H]3[C@@H](O)[C@H](n4ccc(=O)[nH]c4=O)O[C@@H]3COP(=O)(O)O[C@H]2[C@H]1O [3’,3’-c-UMP-AMP]" testreadout=pKd result=~7.01
molecule="O=c1ccn([C@@H]2O[C@@H]3COP(=O)(O)O[C@H]4[C@@H](O)[C@H](n5ccc(=O)[nH]c5=O)O[C@@H]4COP(=O)(O)O[C@H]3[C@H]2O)c(=O)[nH]1 [3’,3’-c-di-UMP]" testreadout=pKd result=~7.00
